# PROTOCOL_DETAILS: Stability assay: residual activity after incubation with 1 mM inhibitor, measured by pNA assay
# Assay type: physicochemical
# Set-up: key: fraction of activity at 0 h incubation (0.80 = 80%)
# ASSAY_CONDITIONS: incubation time 44.0 hours; 1 mM Cu2+; 25° C., pH 7, 0.1% K-sorbate; relative to 0 hours
The entries below are paired with their reported Residual Enzyme Activity.
Lab note: write the figure by itself, no unit.

Reference set (3 entries):
| MOLECULE | READING |
| --- | --- |
| Protease 35: protease from Nocardiopsis prasina DSM 15649, amino acids 1-188 of SEQ ID NO: 8 (protein, listed as Nocardiopsis prasina) ATGPLPQSPTPEADAVSMQEALQRDLGLTPLEADELLAAQDTAFEVDEAAAEAAGDAYGGSVFDTETLELTVLVTDSAAVEAVEATGAGTELVSYGITGLDEIVEELNAADAVPGVVGWYPDVAGDTVVLEVLEGSGADVGGLLADAGVDASAVEVTTTEQPELYADIIGGLAYTMGGRCSVGFAATN | 0.852 |
| Protease 18: protease from Nocardiopsis dassonvillei subsp. dassonvillei DSM 43235, amino acids 1-188 of SEQ ID NO: 12 (protein, Nocardiopsis dassonvillei subspecies dassonvillei) APAPVPQTPVADDSAASMTEALKRDLDLTSAEAEELLSAQEAAIETDAEATEAAGEAYGGSLFDTETLELTVLVTDASAVEAVEATGAQATVVSHGTEGLTEVVEDLNGAEVPESVLGWYPDVESDTVVVEVLEGSDADVAALLADAGVDSSSVRVEEAEEAPQVYADIIGGLAYYMGGRCSVGFAAT | 1.003 |
| Brachysporiella protease: protease from Brachysporiella gayana CGMCC 0865, amino acids 1-186 of SEQ ID NO: 14 (protein, listed as Brachysporiella gayana) MELTSLIAALAVILPIAYGVPMDATTNLSPKVLAAMKRDLGLDAREATARVTFERRAGDVIEELRSSLGDSFAGAWVTDGKVINIGVTDQALVSKVKEAGAEPMVMKNSLGKLQEAKKKLDQIIKEKPKTLSTSGKPGIATYYVDIETNKLIITALSTSITQAEDLAKEVGLSESEFEVRKTEKMP | 1.057 |

Which Residual Enzyme Activity value is on record for Protease 10: known protease derived from Nocardiopsis sp. NRRL 18262, amino acids 1-188 of SEQ ID NO: 2 (protein) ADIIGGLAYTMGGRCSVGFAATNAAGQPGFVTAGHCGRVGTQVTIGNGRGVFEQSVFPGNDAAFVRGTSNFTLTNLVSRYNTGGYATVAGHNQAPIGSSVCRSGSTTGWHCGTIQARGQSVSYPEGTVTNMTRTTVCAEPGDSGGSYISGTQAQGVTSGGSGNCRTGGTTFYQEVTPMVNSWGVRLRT ? 0.874

Same question, Metarhizium protease: known protease derived from Metarhizium anisopliae, amino acids 1-188 of SEQ ID NO: 4 (protein, listed as Metarhizium anisopliae) MELTKFLALLAVILPVAYGAPTQAASLHPQILEAMKRDLGLNAEQATVRVAREIHATDVIEQLRSSVAFAGAWIDADVLYIGITDQALADEVTAAGATPIVMTNSLSKLEKAKEDLDKIFIGRANTLETSSDTSSGIASYFVDVAANKLVIEALADSHGHAEQLAAQVGLTSEFEVRTVETMPTTMAT this time 0.891

Value source: patent US7906310B2
